Biological target: glucocorticoid receptor (estrogen-primed rabbit thymus) (Oryctolagus cuniculus, UniProt P59667)
Construct: preparation of cytosols for the progesterone and glucocorticoid receptor assays; from tissue; host or cells: thymus of estradiol-primed immature female New Zealand White rabbits (cytosol)
Sequence (P59667 whole entry): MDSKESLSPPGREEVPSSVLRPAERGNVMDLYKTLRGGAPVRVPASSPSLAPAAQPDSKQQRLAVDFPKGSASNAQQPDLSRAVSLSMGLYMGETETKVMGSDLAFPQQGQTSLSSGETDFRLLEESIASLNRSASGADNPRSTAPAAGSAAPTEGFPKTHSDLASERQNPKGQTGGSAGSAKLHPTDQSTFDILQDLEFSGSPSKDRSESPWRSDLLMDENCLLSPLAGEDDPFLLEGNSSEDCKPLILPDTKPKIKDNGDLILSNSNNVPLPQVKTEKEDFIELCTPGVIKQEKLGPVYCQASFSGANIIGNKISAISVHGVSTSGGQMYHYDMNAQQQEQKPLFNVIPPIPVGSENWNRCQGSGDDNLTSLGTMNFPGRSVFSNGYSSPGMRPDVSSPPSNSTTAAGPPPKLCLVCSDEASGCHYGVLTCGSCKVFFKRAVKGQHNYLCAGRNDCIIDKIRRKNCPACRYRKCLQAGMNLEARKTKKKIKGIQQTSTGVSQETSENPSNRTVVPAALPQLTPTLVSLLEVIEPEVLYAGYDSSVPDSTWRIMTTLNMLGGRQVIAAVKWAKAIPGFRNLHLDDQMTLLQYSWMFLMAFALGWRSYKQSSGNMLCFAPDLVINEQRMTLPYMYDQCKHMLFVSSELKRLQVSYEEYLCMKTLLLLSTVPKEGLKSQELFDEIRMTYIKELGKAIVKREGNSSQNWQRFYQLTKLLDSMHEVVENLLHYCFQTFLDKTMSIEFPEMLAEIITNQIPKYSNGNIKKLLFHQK
Experiment: Relative binding affinity, glucocorticoid receptor
Conditions: estrogen-primed rabbit thymus; dexamethasone = 100%
Assign class by RELATIVE BINDING AFFINITY Glucocorticoid: not lower than 50% means label 1; lower than 50% means label 0.

Some solved entries appear below for comparison.
CC(=O)O[C@]1(C(=O)CO)CCC2C3CCC4=CC(=O)CCC4=C3C(c3ccc(N(C)C)cc3)C[C@@]21C (stereo partly drawn) [Compound 41]
label 1
CC(=O)O[C@]1(C(=O)CSC(C)=O)CC[C@H]2[C@@H]3CCC4=CC(=O)CCC4=C3[C@@H](c3ccc(N(C)C)cc3)C[C@@]21C [Compound 17]
label 1
CCOCC(=O)[C@@]1(OC(C)=O)CCC2C3CCC4=CC(=O)CCC4=C3C(c3ccc(N(C)C)cc3)C[C@@]21C (stereo partly drawn) [Compound 46]
label 0
CC(=O)O[C@]1(C(C)=O)CC[C@H]2[C@@H]3CCC4=CC(=O)CCC4=C3[C@@H](c3ccc(N(C)C)cc3)C[C@@]21C [Compound 69B, reference compound]
label 1

Now for another entry.
Decide: is the reported value of RELATIVE BINDING AFFINITY Glucocorticoid for CC(=O)O[C@]1(C(=O)CCl)CCC2C3CCC4=CC(=O)CCC4=C3C(c3ccc(N(C)C)cc3)C[C@@]21C (stereo partly drawn) [Compound 14A] equal to or greater than 50%?
label 1
